Some compounds, each annotated with its measured Hepatotoxicity (acute).
# Test parameters: human, serum;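 further: acute human liver injury from clinical signs plus serum ALT or AST above 6 N or alkaline phosphatase above 1.7 N, covering cytolytic, cholestatic and mixed forms, value counts references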
Give only the figure.

CCN(CC)CC(=O)Oc1ccc(NC(C)=O)cc1 : 0
Nc1cc(N2CCCCC2)nc(N)[n+]1[O-] : 0
CC(=O)NCCOC(=O)C(Oc1cccc(C(F)(F)F)c1)c1ccc(Cl)cc1 (centres undefined) [HALOFENATE] : 0
CC1=C(C(=O)O)N2C(=O)[C@@H](NC(=O)[C@H](N)C3=CCC=CC3)[C@H]2SC1 : 1
COc1ccc(Cc2nccc3cc(OC)c(OC)cc23)cc1OC : 9
CCC(Cc1c(I)cc(I)c(N)c1I)C(=O)O (centres undefined) : 1
CC/C(=C(/c1ccc(OCCN(C)C)cc1)c1cccc(O)c1)c1ccccc1 : 0
CCN(CC)CCCC(C)Nc1c2ccc(Cl)cc2nc2ccc(OC)cc12 (centres undefined) : 4
O=C1CN(/N=C/c2ccc([N+](=O)[O-])o2)C(=O)N1CO : 0
CCOC(=O)CN[C@@H](C(=O)N1CC[C@H]1C(=O)NCc1ccc(/C(N)=N\O)cc1)C1CCCCC1 : 3

Could you tell me which Hepatotoxicity (acute) is on file for CN1CCN(C(=O)OC2c3nccnc3C(=O)N2c2ccc(Cl)cn2)CC1 (centres undefined) ?
1

// Hepatotoxicity (acute) lookup, key: `CC(=O)[C@H]1CC[C@H]2[C@@H]3CC[C@@H]4C[C@H](O)CC[C@]4(C)[C@H]3CC[C@]12C`
0

Return reported Hepatotoxicity (acute); argument: `NC(N)=Nc1nc(CSCCC(N)=NS(N)(=O)=O)cs1`
5

For the compound shown here, `C[C@H]1C[C@@H]2[C@H]([C@@H](O)C[C@@]3(C)[C@H]2CC[C@]3(O)C(=O)CO)[C@@]2(C)C=CC(=O)C=C12` , give the reported Hepatotoxicity (acute).
2
